Target: HER2 expressed on the surface of cells (human, UniProt P04626 23-1255)
Test: cell-based or functional assay
Assign growth inhibition span (percentage of cells killed), MDA-MB-175 cells to each entry below.
Answers are plain numbers, in %.

Variant 14020 (antibody, name in Kabat numbering, V domains shown, also called v14020) VH: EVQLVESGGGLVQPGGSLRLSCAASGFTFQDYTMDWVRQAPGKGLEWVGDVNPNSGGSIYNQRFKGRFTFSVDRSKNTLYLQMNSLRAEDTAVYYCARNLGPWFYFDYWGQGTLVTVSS VL: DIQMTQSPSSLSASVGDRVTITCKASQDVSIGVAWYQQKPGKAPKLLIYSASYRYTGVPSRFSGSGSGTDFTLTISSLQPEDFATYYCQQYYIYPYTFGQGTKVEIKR ... 80
Variant 14022 (antibody, name in Kabat numbering, V domains shown, also called v14022) VH: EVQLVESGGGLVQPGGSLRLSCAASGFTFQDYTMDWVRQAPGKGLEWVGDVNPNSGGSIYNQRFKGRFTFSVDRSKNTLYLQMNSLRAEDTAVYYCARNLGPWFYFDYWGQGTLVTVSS VL: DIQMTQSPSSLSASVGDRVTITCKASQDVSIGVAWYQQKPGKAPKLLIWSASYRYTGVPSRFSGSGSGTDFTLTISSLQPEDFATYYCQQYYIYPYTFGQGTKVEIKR ... 83
Variant 14023 (antibody, name in Kabat numbering, V domains shown, also called v14023) VH: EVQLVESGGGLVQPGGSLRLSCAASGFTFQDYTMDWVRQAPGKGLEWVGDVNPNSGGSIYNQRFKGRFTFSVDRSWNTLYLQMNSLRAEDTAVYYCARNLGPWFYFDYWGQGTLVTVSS VL: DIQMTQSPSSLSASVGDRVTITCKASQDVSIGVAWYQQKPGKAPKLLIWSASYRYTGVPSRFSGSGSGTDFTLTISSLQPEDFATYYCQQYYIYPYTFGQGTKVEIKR ... 84
Variant 14019 (antibody, name in Kabat numbering, V domains shown, also called v14019) VH: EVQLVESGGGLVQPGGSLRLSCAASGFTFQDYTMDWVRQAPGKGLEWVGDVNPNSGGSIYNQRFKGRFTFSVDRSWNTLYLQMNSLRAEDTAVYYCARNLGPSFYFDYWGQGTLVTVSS VL: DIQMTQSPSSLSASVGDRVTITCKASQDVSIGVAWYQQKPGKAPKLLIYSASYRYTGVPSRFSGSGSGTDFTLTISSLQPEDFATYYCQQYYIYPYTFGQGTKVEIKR ... 85

Now for the binder whose growth inhibition span (percentage of cells killed), MDA-MB-175 cells we want.
Query: Note down growth inhibition span (percentage of cells killed), MDA-MB-175 cells recorded for Variant 14018 (antibody, name in Kabat numbering, V domains shown, also called v14018) VH: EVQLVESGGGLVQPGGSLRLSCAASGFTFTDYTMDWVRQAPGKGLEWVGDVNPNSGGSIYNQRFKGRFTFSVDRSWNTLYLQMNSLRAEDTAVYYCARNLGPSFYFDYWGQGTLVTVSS VL: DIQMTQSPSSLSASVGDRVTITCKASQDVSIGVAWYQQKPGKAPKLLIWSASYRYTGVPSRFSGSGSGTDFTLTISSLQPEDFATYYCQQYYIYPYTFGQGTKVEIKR
Result: 85
